Each recorded value in this set is attributed to PubChem BioAssay AID1159580.

Experiment: chemical genetic growth profiling, strain panel (AID 1159580);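 note: tested at 20 µM; growth read once vehicle control cultures reached saturation at 30 °C; 1 = growth at the plate median or of vehicle wells; lower values mean less growth of the strain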
Conditions: S. cerevisiae deletion strains, growth OD, locus YER015W, strain faa2, active compounds read low
About 2,000 (36%) of roughly 5,500 compounds were called active. About 18% were inconclusive and are not listed. Some of the results follow.
Exercise: for every item that follows, state its recorded normalized growth.

*Q* Item CC[C@@H](C(=O)C(C)[C@@H](O)[C@H](C)CCc1ccc(C)c(O)c1C(=O)O)C1OC(CC)(C2CC[C@](O)(CC)[C@H](C)O2)C[C@@H]1C (stereo not given in full) has what recorded normalized growth?
*A* 1.06 (inactive)

*Q* Item CN1CCC(OC(c2ccccc2)c2ccccc2)CC1 has what recorded normalized growth?
*A* 0.99 (inactive)

*Q* Item CN1C2C[C@H](OC(=O)[C@H](CO)c3ccccc3)C[C@H]1[C@@H](O)C2 has what recorded normalized growth?
*A* 1.01 (inactive)

*Q* Item CCCCCCCCCCCCCc1ccco1 has what recorded normalized growth?
*A* 0.989 (inactive)

*Q* Item CN1C2CCC1CC(OC(c1ccccc1)c1ccccc1N)C2 (stereo not given) has what recorded normalized growth?
*A* 0.987 (inactive)
